Test: qHTS assay for identifying genotoxic compounds that show differential cytotoxicity against isogenic chicken DT40 cell lines with known DNA damage response pathways - Rad54/Ku70 mutant cell line (AID 743015); further: nearly all actives have a fitted effect of over 60% in size
Conditions: DT40 Rad54/Ku70 mutant viability, CellTiter-Glo, 40 h; series mostly up to 66.8 µM
Inconclusive results are not listed. Active and inactive are the calls of the source. The call rests on the fitted dose curve; in most records, active means well fitted cell-killing curve with a large enough effect in the repeat runs; inconclusive means weak or mixed curves; inactive means no such curve, though single readings can be large or run the other way.
Possible outcomes: TRUE = active, FALSE = inactive

In [3]: df
Out[3]:
                                    compound    cat
 0  C1C2OC2C2C1C1CC2C2OC12 (centres undefined)  FALSE
 1                            N#CC1(O)CCCCC1  FALSE
 2                               Cc1ccccc1Br  FALSE
 3     CCCCC1CCCCC(=O)O1 (centres undefined)  FALSE
 4  CN(C)C(=O)C(CCN1CCC(O)(c2ccc(Cl)cc2)CC1)(c1ccccc1)c1ccccc1   TRUE
 5  CCC(C(=O)NC(N)=O)c1ccccc1 (centres undefined)  FALSE
 6                     CCCCCCOC(=O)c1ccccc1O  FALSE
 7      Cc1ncc(CSSCc2cnc(C)c(O)c2CO)c(CO)c1O  FALSE
 8                           CCCCCCCCCCCCCCC  FALSE
 9                    C=C(C)[C@H]1CC=C(C)CC1  FALSE
10  CCCC(=O)O[C@]1(C(=O)CCl)[C@@H](C)C[C@H]2[C@@H]3CCC4=CC(=O)C=C[C@]4(C)[C@@]3(F)C(=O)C[C@@]21C   TRUE
11  CCCCCOC(=O)Nc1nc(=O)n([C@@H]2O[C@H](C)[C@@H](O)[C@H]2O)cc1F  FALSE
12                           CSc1ccc(C=O)cc1  FALSE
13  CCCCCCCCCCCCCCCCCCOCC(O)CO (centres undefined)  FALSE
14  Nc1cc(C(Cl)=C(Cl)Cl)c(S(N)(=O)=O)cc1S(N)(=O)=O  FALSE
15  O=C1C(CCS(=O)c2ccccc2)C(=O)N(c2ccccc2)N1c1ccccc1 (centres undefined)  FALSE
16                   CCCCCC[C@@H](CCC)C(=O)O  FALSE
17                                   CCCCC=O  FALSE
18  O=C(O)C(O)[C@H](O)[C@@H](O)[C@H](O)[C@H](O)CO (some centres undefined)  FALSE
19          O=C(O)/C=C/c1ccc(/C=C/C(=O)O)cc1  FALSE
20                           OC/C=C/c1ccccc1  FALSE
21                           CCCCc1ccc(N)cc1  FALSE
22                     COc1cc(CCC(C)=O)ccc1O  FALSE
23         COC(=O)c1ccc(C(=O)OC)c(C(=O)OC)c1  FALSE
24                 CCO[Si](CCCN=C=O)(OCC)OCC  FALSE
25                        CCO[Si](C)(OCC)OCC  FALSE
26      COc1ccc(N=[N+]([O-])c2ccc(OC)cc2)cc1  FALSE
27  O=[N+]([O-])c1ccc(Oc2ccc([N+](=O)[O-])cc2)cc1  FALSE
28                            c1ccc2cnncc2c1  FALSE

###

Biological target: Nuclear receptor subfamily 1 group I member 2 (Homo sapiens) (UniProt O75469)
Sequence (O75469 whole entry, looked up): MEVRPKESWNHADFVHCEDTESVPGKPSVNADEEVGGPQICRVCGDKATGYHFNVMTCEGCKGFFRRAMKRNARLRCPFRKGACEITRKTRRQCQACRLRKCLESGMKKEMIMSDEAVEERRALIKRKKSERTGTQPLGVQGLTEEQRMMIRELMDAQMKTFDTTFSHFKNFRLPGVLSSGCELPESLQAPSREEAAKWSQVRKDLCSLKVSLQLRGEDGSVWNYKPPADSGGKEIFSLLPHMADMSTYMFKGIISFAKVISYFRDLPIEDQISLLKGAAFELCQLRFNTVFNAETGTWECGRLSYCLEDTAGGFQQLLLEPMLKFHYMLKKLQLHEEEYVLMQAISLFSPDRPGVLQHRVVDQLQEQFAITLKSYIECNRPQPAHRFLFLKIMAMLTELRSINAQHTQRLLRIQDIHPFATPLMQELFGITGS
Test: Human pregnane X receptor (PXR) small molecule agonists, qHTS assay (AID 1346982); further: nearly all actives have a fitted effect of over 35% in size; further: potency means the concentration at half of the fitted maximal effect; on activation: on the % scale 0 is the no-effect control and ±100 the full control effect
Conditions: PXR-Luc HepG2, CYP3A4 luciferase reporter, 24 h; series mostly up to 92.4 µM
Records with an inconclusive call do not appear. Activity calls are given as the source filed them. Calls come from the whole dose curve; as a rule, active = well fitted activation curve with a large enough effect in the repeat runs; inconclusive = weak or mixed curves; inactive = no such curve, though single readings can be large or run the other way.
measured_endpoint: Potency

In [3]: df
Out[3]:
                                smiles_entry            result
 0                  CC(C)N1C(=O)c2ccccc2C1=O          inactive
 1                          COCc1ccc(COC)cc1          inactive
 2  CCCCCCCCCCCCCCCCCC(=O)OCCCCCCCCCCCCCC(C)C          inactive
 3                  Cn1cnc2c(=O)[nH]c(N)nc21          inactive
 4         O=C(O)c1ccccc1-c1ccc(C(F)(F)F)cc1          inactive
 5                          COc1nc(C)nc(N)n1          inactive
 6                          CN(C)N=Nc1ccccc1          inactive
 7                         CC(C)(C)CC(C)(C)N          inactive
 8                    c1ccc(SCCSc2ccccc2)cc1  7.63 µM (active)
 9                       CCC(=O)Nc1cccc(N)c1          inactive
10               CC(C)(O)C(=O)c1ccc(OCCO)cc1          inactive
11                            c1ccc2cnncc2c1          inactive
12                             CCCCN(CCO)CCO          inactive
13  CCCC(=O)O[C@]1(C(=O)CCl)[C@@H](C)C[C@H]2[C@@H]3CCC4=CC(=O)C=C[C@]4(C)[C@@]3(F)C(=O)C[C@@]21C  2.11 µM (active)

###

Assay: qHTS assay to identify small molecule antagonists of the TGF-beta/Smad signaling pathway - cell viability counter screen (AID 1346824); further: on the % scale 0 is the no-effect control and ±100 the full control effect; nearly all actives have a fitted effect of over 50% in size
Conditions: SBE-bla HEK293T viability, CellTiter-Glo luminescence; series mostly up to 76.8 µM
Excerpt: U.S. Tox21 Program National Center for Advancing Translational Sciences [NCATS] NIH Chemical Genomics Center [NCGC] U.S. Environmental Protection Agency [EPA] National Institutes of Environmental Health Sciences [NIEHS] National Toxicology Program [NTP] U.S. Food and Drug Administration [FDA] […]
Results filed as inconclusive are left out. Active and inactive are the calls of the source. Calls follow the shape of the dose curve; as a rule, active = well fitted cell-killing curve with a large enough effect in the repeat runs; inconclusive = weak or mixed curves; inactive = flat fitted curve, though single readings scatter.
measured_endpoint: viability change, negative = cytotoxic

>>> df
                                    compound                         result
 0                           CCCCc1ccc(N)cc1                       inactive
 1  CCCCCCOC(=O)CC(CC(=O)OCCCCCC)(OC(=O)CCC)C(=O)OCCCCCC                       inactive
 2                     COc1ccc2cc(C=O)ccc2c1                       inactive
 3                       CN(C)C(=O)Nc1ccccc1                       inactive
 4  Oc1ccc2c(c1)OC[C@@H](N1CCC(O)(c3ccc(F)cc3)CC1)[C@H]2O                       inactive
 5                      C=C(C)C(=O)NCCCN(C)C                       inactive
 6                           CSc1ccc(C=O)cc1                       inactive
 7                         CC(C)(O)Cc1ccccc1                       inactive
 8    NC(=O)CCCCC1CCSS1 (stereo unspecified)                       inactive
 9                          CC(C)(O)c1ccccc1                       inactive
10                                    CCCC=O                       inactive
11     C#CC(O)C(CC)CCCC (stereo unspecified)                       inactive
12                            N#CC1(O)CCCCC1                       inactive
13  C/C=C1\C(=O)C[C@H]2[C@@H]3CCC4=CC(=O)CC[C@]4(C)[C@H]3CC[C@]12C                       inactive
14  Oc1cc(O)c2c(c1)O[C@H](c1ccc(O)c(O)c1)[C@H](O)C2                       inactive
15  CC12CCC(CC1=O)C2(C)C (stereo unspecified)                       inactive
16                             CCCCNc1ccccc1                       inactive
17    CCCCC1CCCCC(=O)O1 (stereo unspecified)                       inactive
18               O=c1[nH]c2ccccc2c(=O)n1CCCl                       inactive
19     CCCOCC(C)OCC(C)O (stereo unspecified)                       inactive
20                 CCO[Si](CCCN=C=O)(OCC)OCC                       inactive
21                           O=C(O)c1ccccc1S                       inactive
22  O=C(O)CCNC(=O)c1ccc(N=Nc2ccc(O)c(C(=O)O)c2)cc1                       inactive
23   CC(CCO)CCCC(C)(C)O (stereo unspecified)                       inactive
24  CCCCCN(CCCCC)C(=O)C(CCC(=O)O)NC(=O)c1ccc(Cl)c(Cl)c1 (stereo unspecified)                       inactive
25  O=[N+]([O-])c1ccc(Oc2ccc([N+](=O)[O-])cc2)cc1                       inactive
26  NS(=O)(=O)c1cc2c(cc1Cl)NC(CSCc1ccccc1)=NS2(=O)=O                       inactive
27  Cc1onc(-c2ccccc2)c1-c1ccc(S(N)(=O)=O)cc1                       inactive
28  C=CCSCC1Nc2cc(Cl)c(S(N)(=O)=O)cc2S(=O)(=O)N1 (stereo unspecified)                       inactive
29       CO[Si](CCCNCCC[Si](OC)(OC)OC)(OC)OC                       inactive
30  CC(C)[N+](C)(C)CC(O)COc1cccc2ccccc12 (stereo unspecified)                       inactive
31                       CC(=O)CCc1ccc(O)cc1                       inactive
32  Cc1cc(C)cc(OCC2CNC(=O)O2)c1 (stereo unspecified)                       inactive
33                    COC(=O)CCCCCCCCC(=O)OC                       inactive
34  NS(=O)(=O)c1cc(C2(O)NC(=O)c3ccccc32)ccc1Cl (stereo unspecified)                       inactive
35         O=C(O)c1ccccc1-c1ccc(C(F)(F)F)cc1                       inactive
36  CCC(C)OC(=O)N1CCCCC1CCO (stereo unspecified)                       inactive
37                  CC1(C)SC(C)(C)SC(C)(C)S1                       inactive
38                            c1ccc2cnncc2c1                       inactive
39                   O=Cc1ccccc1[N+](=O)[O-]                       inactive
40                      CCCCCCCCN(C)CCCCCCCC                       inactive
41         O=C1OC(=O)c2cc([N+](=O)[O-])ccc21                       inactive
42            CC1CCN(CCCC(=O)c2ccc(F)cc2)CC1                       inactive
43   Cc1nc(-c2ccc(OCC(C)C)c(C#N)c2)sc1C(=O)O                       inactive
44               C=CCOc1nc(OCC=C)nc(OCC=C)n1                       inactive
45  CCn1cc(C(=O)O)c(=O)c2cc(F)c(N3CCN(C)CC3)cc21  3.51% [at 15.8 µM] (inactive)
46  C[C@H](O)C(=O)Nc1c(I)c(C(=O)NC(CO)CO)c(I)c(C(=O)NC(CO)CO)c1I                       inactive
47  COC[C@H](c1ccc(C(F)(F)F)cc1)N1CCN(C2(C)CCN(C(=O)c3c(C)ncnc3C)CC2)C[C@H]1C                       inactive
48  CC(C=O)Cc1ccc(C(C)C)cc1 (stereo unspecified)                       inactive
49         COC(=O)c1ccc(C(=O)OC)c(C(=O)OC)c1                       inactive
50                          COC(=O)CCCC(=O)O                       inactive
51                         CC(C)(C)CC(C)(C)N                       inactive
52                              CC/C=C\CCCCO                       inactive
53   OCCN1C[C@H](O)[C@@H](O)[C@H](O)[C@H]1CO                       inactive
54                       O=S(=O)(O)c1ccccc1O                       inactive
55      CC(=O)O[C@H](CC(=O)[O-])C[N+](C)(C)C                       inactive
